Where these numbers come from: paper PMC12332266

- Tested on: hiPSC-CM (iCell Cardiomyocytes^2)
- test-description: RTCA CardioECR assessment (impedance and electrophysiology parameters)
- stated-conditions: human, 72 h
The following molecules are shown together with reported Beating rate (BR) MEC values.

{"columns": ["structure-as-smiles", "assay-target", "Beating rate (BR) MEC"],
 "data": [
  ["CCC1=C[C@@H]2CN(C1)Cc1c([nH]c3ccccc13)[C@@](C(=O)OC)(c1cc3c(cc1OC)N(C)[C@H]1[C@@](O)(C(=O)OC)[C@H](OC(C)=O)[C@]4(CC)C=CCN5CC[C@]31[C@@H]54)C2", "hiPSC-CM (iCell Cardiomyocytes^2)", "1 µM"],
  ["CC(=O)O[C@H]1C(=O)[C@@]2(C)[C@H]([C@H](OC(=O)c3ccccc3)[C@]3(O)C[C@H](OC(=O)[C@H](O)[C@@H](NC(=O)c4ccccc4)c4ccccc4)C(C)=C1C3(C)C)[C@]1(OC(C)=O)CO[C@@H]1C[C@@H]2O", "hiPSC-CM (iCell Cardiomyocytes^2)", "3 µM"],
  ["COc1cccc2c1C(=O)c1c(O)c3c(c(O)c1C2=O)C[C@@](O)(C(C)=O)C[C@@H]3O[C@H]1C[C@H](N)[C@H](O)[C@H](C)O1", "hiPSC-CM (iCell Cardiomyocytes^2)", "0.1 (+21%) µM"],
  ["CC(C)C[C@H](NC(=O)[C@H](Cc1ccccc1)NC(=O)c1cnccn1)B(O)O", "hiPSC-CM (iCell Cardiomyocytes^2)", "0.1 µM"],
  ["N=C(N)c1ccc(OCCCCCOc2ccc(C(=N)N)cc2)cc1", "hiPSC-CM (iCell Cardiomyocytes^2)", "3 µM"]
]}

---

- Tested on: hiPSC-CM (iCell Cardiomyocytes^2)
- test-description: Intracellular miRNA expression by RT-qPCR in hiPSC-CM pellets after 72-hour treatment
recorded-metric: miRNAs hiPSC-CM pellet, MEC overall (µM)

{"columns": ["structure-as-smiles", "endpoint-value"],
 "data": [
  ["Cc1ccc(NC(=O)c2ccc(CN3CCN(C)CC3)cc2)cc1Nc1nccc(-c2cccnc2)n1", 0.3],
  ["O=C1c2c(O)ccc(O)c2C(=O)c2c(NCCNCCO)ccc(NCCNCCO)c21", 0.1],
  ["Cc1[nH]c(=O)c(C#N)cc1-c1ccncc1", 0.1],
  ["CC(=O)O[C@H]1C(=O)[C@@]2(C)[C@H]([C@H](OC(=O)c3ccccc3)[C@]3(O)C[C@H](OC(=O)[C@H](O)[C@@H](NC(=O)c4ccccc4)c4ccccc4)C(C)=C1C3(C)C)[C@]1(OC(C)=O)CO[C@@H]1C[C@@H]2O", 0.3],
  ["COc1cccc2c1C(=O)c1c(O)c3c(c(O)c1C2=O)C[C@@](O)(C(=O)CO)C[C@@H]3O[C@H]1C[C@H](N)[C@H](O)[C@H](C)O1", 0.03],
  ["Cc1nc(Nc2ncc(C(=O)Nc3c(C)cccc3Cl)s2)cc(N2CCN(CCO)CC2)n1", 0.3]
]}

---

- Tested on: hiPSC-CM (iCell Cardiomyocytes^2)
- test-description: RTCA CardioECR assessment (impedance and electrophysiology parameters)
- stated-conditions: human, 72 h
The following compounds are shown together with reported Contractility Amplitude MEC values.

{"columns": ["compound", "Contractility Amplitude MEC, µM"],
 "data": [
  ["CCCN1C[C@H](CSC)C[C@@H]2c3cccc4[nH]cc(c34)C[C@H]21 [Pergolide]", 0.0003],
  ["CC(C)C[C@H](NC(=O)[C@H](Cc1ccccc1)NC(=O)c1cnccn1)B(O)O", 0.1],
  ["CC[C@]1(O)C[C@H]2CN(CCc3c([nH]c4ccccc34)[C@@](C(=O)OC)(c3cc4c(cc3OC)N(C=O)[C@H]3[C@@](O)(C(=O)OC)[C@H](OC(C)=O)[C@]5(CC)C=CCN6CC[C@]43[C@@H]65)C2)C1", 0.003],
  ["COc1cccc2c1C(=O)c1c(O)c3c(c(O)c1C2=O)C[C@@](O)(C(=O)CO)C[C@@H]3O[C@H]1C[C@H](N)[C@@H](O)[C@H](C)O1 [Epirubicin]", 0.3],
  ["Cc1cn(-c2cc(NC(=O)c3ccc(C)c(Nc4nccc(-c5cccnc5)n4)c3)cc(C(F)(F)F)c2)cn1", 0.1],
  ["CC(=O)[C@]1(O)Cc2c(O)c3c(c(O)c2[C@@H](O[C@H]2C[C@H](N)[C@H](O)[C@H](C)O2)C1)C(=O)c1ccccc1C3=O", 1],
  ["Cc1nc(Nc2ncc(C(=O)Nc3c(C)cccc3Cl)s2)cc(N2CCN(CCO)CC2)n1", 10],
  ["CC(=O)O[C@H]1C(=O)[C@@]2(C)[C@H]([C@H](OC(=O)c3ccccc3)[C@]3(O)C[C@H](OC(=O)[C@H](O)[C@@H](NC(=O)c4ccccc4)c4ccccc4)C(C)=C1C3(C)C)[C@]1(OC(C)=O)CO[C@@H]1C[C@@H]2O", 0.3],
  ["CCC1=C[C@@H]2CN(C1)Cc1c([nH]c3ccccc13)[C@@](C(=O)OC)(c1cc3c(cc1OC)N(C)[C@H]1[C@@](O)(C(=O)OC)[C@H](OC(C)=O)[C@]4(CC)C=CCN5CC[C@]31[C@@H]54)C2", 0.1],
  ["CC[C@]1(O)C[C@@H]2CN(CCc3c([nH]c4ccccc34)[C@@](C(=O)OC)(c3cc4c(cc3OC)N(C)[C@H]3[C@@](O)(C(=O)OC)[C@H](OC(C)=O)[C@]5(CC)C=CCN6CC[C@]43[C@@H]65)C2)C1", 0.0003],
  ["N=C(N)c1ccc(OCCCCCOc2ccc(C(=N)N)cc2)cc1", 0.1],
  ["O=C1c2c(O)ccc(O)c2C(=O)c2c(NCCNCCO)ccc(NCCNCCO)c21", 0.1],
  ["COc1cccc2c1C(=O)c1c(O)c3c(c(O)c1C2=O)C[C@@](O)(C(=O)CO)C[C@@H]3O[C@H]1C[C@H](N)[C@H](O)[C@H](C)O1", 0.1]
]}

---

- Tested on: hiPSC-CM (iCell Cardiomyocytes^2)
- test-description: Intracellular miRNA expression by RT-qPCR in hiPSC-CM pellets after 72-hour treatment
- stated-conditions: 0.3 µM, 72 h
Where a name gives a salt, the structure may show the parent alone.
hey, just use TRUE if measured hsa-miR-7-5p fold change, intracellular is less than 1, otherwise FALSE

{"columns": ["molecule", "assay-target", "class"],
 "data": [
  ["CC(C)C[C@H](NC(=O)CNC(=O)c1cc(Cl)ccc1Cl)B1OC(=O)C(CC(=O)O)(CC(=O)O)O1 [Ixazomib Citrate]", "hiPSC-CM (iCell Cardiomyocytes^2)", "FALSE"],
  ["Cc1cn(-c2cc(NC(=O)c3ccc(C)c(Nc4nccc(-c5cccnc5)n4)c3)cc(C(F)(F)F)c2)cn1", "hiPSC-CM (iCell Cardiomyocytes^2)", "TRUE"],
  ["CC(C)C[C@H](NC(=O)[C@H](CCc1ccccc1)NC(=O)CN1CCOCC1)C(=O)N[C@@H](Cc1ccccc1)C(=O)N[C@@H](CC(C)C)C(=O)[C@@]1(C)CO1", "hiPSC-CM (iCell Cardiomyocytes^2)", "FALSE"],
  ["Cc1nc(Nc2ncc(C(=O)Nc3c(C)cccc3Cl)s2)cc(N2CCN(CCO)CC2)n1", "hiPSC-CM (iCell Cardiomyocytes^2)", "FALSE"]
]}

---

The following compounds are shown together with reported Spike Amplitude (SA) MEC values.
- System: hiPSC-CM (iCell Cardiomyocytes^2)
- test-description: RTCA CardioECR assessment (impedance and electrophysiology parameters)
- stated-conditions: human, 72 h

{"columns": ["compound", "Spike Amplitude (SA) MEC (µM)"],
 "data": [
  ["CC(C)C[C@H](NC(=O)[C@H](Cc1ccccc1)NC(=O)c1cnccn1)B(O)O", 0.1],
  ["COc1cccc2c1C(=O)c1c(O)c3c(c(O)c1C2=O)C[C@@](O)(C(=O)CO)C[C@@H]3O[C@H]1C[C@H](N)[C@@H](O)[C@H](C)O1 [Epirubicin]", 0.3]
]}

---

- System: hiPSC-CM (iCell Cardiomyocytes^2)
- test-description: RTCA CardioECR assessment (impedance and electrophysiology parameters)
- stated-conditions: human, 72 h
recorded-metric: Beating Rate MEC (µM)

{"columns": ["compound", "endpoint-value"],
 "data": [
  ["CC(=O)[C@]1(O)Cc2c(O)c3c(c(O)c2[C@@H](O[C@H]2C[C@H](N)[C@H](O)[C@H](C)O2)C1)C(=O)c1ccccc1C3=O [Idarubicin]", 0.1],
  ["N=C(N)c1ccc(OCCCCCOc2ccc(C(=N)N)cc2)cc1 [Pentamidine]", 3],
  ["CC(C)C[C@H](NC(=O)[C@H](Cc1ccccc1)NC(=O)c1cnccn1)B(O)O [Bortezomib]", 0.1],
  ["CC(=O)O[C@H]1C(=O)[C@@]2(C)[C@H]([C@H](OC(=O)c3ccccc3)[C@]3(O)C[C@H](OC(=O)[C@H](O)[C@@H](NC(=O)c4ccccc4)c4ccccc4)C(C)=C1C3(C)C)[C@]1(OC(C)=O)CO[C@@H]1C[C@@H]2O [Paclitaxel]", 3],
  ["C#Cc1cccc(Nc2ncnc3cc(OCCOC)c(OCCOC)cc23)c1 [Erlotinib]", 0.77],
  ["O=C1c2c(O)ccc(O)c2C(=O)c2c(NCCNCCO)ccc(NCCNCCO)c21 [Mitoxantrone]", 0.1],
  ["COc1cccc2c1C(=O)c1c(O)c3c(c(O)c1C2=O)C[C@@](O)(C(=O)CO)C[C@@H]3O[C@H]1C[C@H](N)[C@@H](O)[C@H](C)O1 [Epirubicin]", 0.3],
  ["CC[C@]1(O)C[C@@H]2CN(CCc3c([nH]c4ccccc34)[C@@](C(=O)OC)(c3cc4c(cc3OC)N(C)[C@H]3[C@@](O)(C(=O)OC)[C@H](OC(C)=O)[C@]5(CC)C=CCN6CC[C@]43[C@@H]65)C2)C1 [Vinblastine]", 0.003]
]}
